- assay-summary: Inhibition of voltage-dependent calcium channel in Sprague-Dawley rat thoracic aorta assessed as inhibition of CaCl2-induced contraction by isometric force transducer
- Format: tissue-based
pIC50: −log10 of the molar value.
measured-metric: pIC50

COc1ccc(C(Nc2nc3ccccc3s2)c2c(O)ccc3ccccc23)cc1 (configuration not stated)
5.52
COc1ccc(C(Nc2nc3c(Cl)cccc3s2)c2c(O)ccc3ccccc23)cc1 (configuration not stated)
4.30
